# ASSAY INFO: qHTS assay for small molecules that induce genotoxicity in human embryonic kidney cells expressing luciferase-tagged ATAD5 (AID 651632); further: nearly all actives have a fitted effect of over 15% in size
# EXPERIMENTAL CONDITIONS: HEK293T ATAD5-luciferase induction, 16 h; series mostly up to 83.3 µM
Inconclusive results are not listed. The source made the active and inactive calls. The call rests on the fitted dose curve; in most records, active means well fitted activation curve with a large enough effect in the repeat runs; inconclusive means weak or mixed curves; inactive means no such curve, though single readings can be large or run the other way.

[
  {
    "COMPOUND": "COCCOC(=O)CC#N",
    "outcome": "inactive"
  },
  {
    "COMPOUND": "CSc1ccc(C=O)cc1",
    "outcome": "inactive"
  },
  {
    "COMPOUND": "CC(=O)O[C@H](CC(=O)[O-])C[N+](C)(C)C",
    "outcome": "inactive"
  },
  {
    "COMPOUND": "CCCC(C)C(=O)O (centres undefined)",
    "outcome": "inactive"
  },
  {
    "COMPOUND": "CCCCCOC(=O)Nc1nc(=O)n([C@@H]2O[C@H](C)[C@@H](O)[C@H]2O)cc1F",
    "outcome": "inactive"
  },
  {
    "COMPOUND": "CCN(CC)C(=O)c1ccc(O)c(OC)c1",
    "outcome": "inactive"
  },
  {
    "COMPOUND": "Cn1cnc2c(=O)[nH]c(N)nc21",
    "outcome": "inactive"
  },
  {
    "COMPOUND": "Nc1nc2c(ncn2CCC(CO)CO)c(=O)[nH]1",
    "outcome": "inactive"
  },
  {
    "COMPOUND": "C#CC(C)(O)CC(C)C (centres undefined)",
    "outcome": "inactive"
  },
  {
    "COMPOUND": "COc1cccc(OC)c1",
    "outcome": "inactive"
  },
  {
    "COMPOUND": "C/C=C1\\C(=O)C[C@H]2[C@@H]3CCC4=CC(=O)CC[C@]4(C)[C@H]3CC[C@]12C",
    "outcome": "inactive"
  },
  {
    "COMPOUND": "Cc1cc(C)cc(OCC2CNC(=O)O2)c1 (centres undefined)",
    "outcome": "inactive"
  },
  {
    "COMPOUND": "C1CCCCCCCCCCC1",
    "outcome": "inactive"
  },
  {
    "COMPOUND": "O=C(O)c1ccc[n+]([O-])c1",
    "outcome": "inactive"
  }
]

* * *

# EXPERIMENTAL SYSTEM: Androgen receptor (Homo sapiens)
# ASSAY INFO: qHTS assay to identify small molecule agonists of the androgen receptor (AR) signaling pathway using the MDA cell line (AID 743040; further: nearly all actives have a fitted effect of over 20% in size)
# EXPERIMENTAL CONDITIONS: MDA-kb2 AR-luc cells, MMTV luciferase, 16 h; series mostly up to 70.3 µM
Calls of active or inactive are those of the source. Calls come from the whole dose curve; as a rule, active = well fitted activation curve with a large enough effect in the repeat runs; inconclusive = weak or mixed curves; inactive = flat fitted curve, though single readings scatter.
Outcome codes: active, inactive

[
  {
    "MOLECULE": "CCN1CCN(c2cc3c(cc2F)c(=O)c(C(=O)O)cn3C2CC2)CC1",
    "ASSIGNED LABEL": "inactive"
  },
  {
    "MOLECULE": "NS(=O)(=O)c1cc2c(cc1C(F)(F)F)NC(Cc1ccccc1)NS2(=O)=O (stereo not drawn)",
    "ASSIGNED LABEL": "inactive"
  },
  {
    "MOLECULE": "O=C(O)c1ccc[n+]([O-])c1",
    "ASSIGNED LABEL": "inactive"
  },
  {
    "MOLECULE": "CN(C)CCn1nnnc1SCC1=C(C(=O)O)N2C(=O)[C@@H](NC(=O)Cc3csc(N)n3)[C@H]2SC1",
    "ASSIGNED LABEL": "inactive"
  },
  {
    "MOLECULE": "CCCCCCCCN(C)CCCCCCCC",
    "ASSIGNED LABEL": "inactive"
  },
  {
    "MOLECULE": "Cc1ccc(N)cc1[N+](=O)[O-]",
    "ASSIGNED LABEL": "inactive"
  },
  {
    "MOLECULE": "CCOC(=O)Nc1ccc2c(c1)N(C(=O)CCN1CCOCC1)c1ccccc1S2",
    "ASSIGNED LABEL": "active"
  },
  {
    "MOLECULE": "COc1ccc(NC(C)=O)cc1",
    "ASSIGNED LABEL": "inactive"
  },
  {
    "MOLECULE": "COc1cccc(Br)c1",
    "ASSIGNED LABEL": "inactive"
  },
  {
    "MOLECULE": "CC1(C)SC(C)(C)SC(C)(C)S1",
    "ASSIGNED LABEL": "inactive"
  },
  {
    "MOLECULE": "CC1=CCC2C(C1)C2(C)C (stereo not drawn)",
    "ASSIGNED LABEL": "inactive"
  },
  {
    "MOLECULE": "CC(C)c1ccc2oc3nc(N)c(C(=O)O)cc3c(=O)c2c1",
    "ASSIGNED LABEL": "active"
  },
  {
    "MOLECULE": "CN1[C@@H]2CC[C@H]1CC(NC(=O)n1c(=O)[nH]c3ccccc31)C2 (stereo partly drawn)",
    "ASSIGNED LABEL": "inactive"
  }
]

* * *

# EXPERIMENTAL SYSTEM: Cytochrome P450 2C19 (Homo sapiens) (UniProt P33261)
# Sequence (P33261 whole entry, looked up): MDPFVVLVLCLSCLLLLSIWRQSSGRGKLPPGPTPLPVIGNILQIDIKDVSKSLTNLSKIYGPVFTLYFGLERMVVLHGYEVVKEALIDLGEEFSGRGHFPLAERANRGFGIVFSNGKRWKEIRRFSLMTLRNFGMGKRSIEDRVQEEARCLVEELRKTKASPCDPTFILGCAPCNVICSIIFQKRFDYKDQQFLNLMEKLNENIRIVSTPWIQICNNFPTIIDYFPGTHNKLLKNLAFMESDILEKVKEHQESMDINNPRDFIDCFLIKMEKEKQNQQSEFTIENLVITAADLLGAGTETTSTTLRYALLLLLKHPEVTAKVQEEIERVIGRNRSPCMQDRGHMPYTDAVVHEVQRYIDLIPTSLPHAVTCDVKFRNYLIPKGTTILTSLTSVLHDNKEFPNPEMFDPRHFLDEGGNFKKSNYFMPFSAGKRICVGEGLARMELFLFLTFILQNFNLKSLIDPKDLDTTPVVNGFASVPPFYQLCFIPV
# ASSAY INFO: Cytochrome P450 Family 2 Subfamily C Member 19 (CYP2C19) small molecule antagonists: luciferase reporter qHTS assay (AID 1671197); further: nearly all actives have a fitted effect of over 65% in size
# EXPERIMENTAL CONDITIONS: P450-Glo CYP2C19 enzyme, luciferin luminescence, 1 h; series mostly up to 115 µM
Results filed as inconclusive are left out. Active and inactive are the calls of the source. The call rests on the fitted dose curve; in most records, active means well fitted inhibition curve with a large enough effect in the repeat runs; inconclusive means weak or mixed curves; inactive means no such curve, though single readings can be large or run the other way.
Possible outcomes: active, inactive

[
  {
    "COMPOUND": "COC(=O)C1=C(C)NC(C)=C(C(=O)OCC(C)=O)C1c1ccccc1[N+](=O)[O-] (stereo unspecified)",
    "ASSIGNED LABEL": "active"
  },
  {
    "COMPOUND": "CC(C)(C)N(CCO)CCO",
    "ASSIGNED LABEL": "inactive"
  },
  {
    "COMPOUND": "CCO[Si](CCCN=C=O)(OCC)OCC",
    "ASSIGNED LABEL": "inactive"
  },
  {
    "COMPOUND": "CC(C)CCCC(C)CCCC(C)CCCCC(C)CCCC(C)CCCC(C)C (stereo unspecified)",
    "ASSIGNED LABEL": "inactive"
  },
  {
    "COMPOUND": "CCCCCCCCCCCCCCCCCC(=O)OCCCCCCCCCCCCCC(C)C",
    "ASSIGNED LABEL": "inactive"
  },
  {
    "COMPOUND": "OCCN1C[C@H](O)[C@@H](O)[C@H](O)[C@H]1CO",
    "ASSIGNED LABEL": "inactive"
  }
]

* * *

# EXPERIMENTAL SYSTEM: Thyrotropin receptor (Homo sapiens) (UniProt P16473)
# Sequence (P16473 whole entry, looked up): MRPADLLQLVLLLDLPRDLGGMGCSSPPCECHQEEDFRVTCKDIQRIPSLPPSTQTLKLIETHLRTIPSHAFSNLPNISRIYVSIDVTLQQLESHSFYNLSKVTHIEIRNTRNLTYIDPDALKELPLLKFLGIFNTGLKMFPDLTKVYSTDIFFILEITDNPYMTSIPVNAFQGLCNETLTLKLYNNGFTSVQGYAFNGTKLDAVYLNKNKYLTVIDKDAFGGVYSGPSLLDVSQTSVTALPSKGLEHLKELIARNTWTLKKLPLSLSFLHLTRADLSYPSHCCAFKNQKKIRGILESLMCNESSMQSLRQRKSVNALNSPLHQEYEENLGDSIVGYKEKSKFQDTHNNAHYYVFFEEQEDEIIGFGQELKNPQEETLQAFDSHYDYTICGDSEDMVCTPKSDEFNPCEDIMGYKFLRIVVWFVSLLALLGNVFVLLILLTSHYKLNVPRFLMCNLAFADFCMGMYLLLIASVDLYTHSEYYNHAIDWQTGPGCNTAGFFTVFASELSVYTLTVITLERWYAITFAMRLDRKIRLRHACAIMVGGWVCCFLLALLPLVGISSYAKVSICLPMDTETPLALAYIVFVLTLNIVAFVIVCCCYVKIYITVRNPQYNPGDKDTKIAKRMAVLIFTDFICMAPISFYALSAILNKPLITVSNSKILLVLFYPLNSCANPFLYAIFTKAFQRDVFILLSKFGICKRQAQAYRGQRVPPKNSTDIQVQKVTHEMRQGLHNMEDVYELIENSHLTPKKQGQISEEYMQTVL
# ASSAY INFO: qHTS assay to identify small molecule agonists of the thyroid stimulating hormone receptor (TSHR) signaling pathway (AID 1224843); further: nearly all actives have a fitted effect of over 45% in size
# EXPERIMENTAL CONDITIONS: TSHR-HEK293 cells, cAMP HTRF, agonist mode, 30 min; series mostly up to 92.4 µM
Records with an inconclusive call do not appear. Calls of active or inactive are those of the source. The call rests on the fitted dose curve.

[
  {
    "COMPOUND": "CCCCCCCCN(C)CCCCCCCC",
    "activation": "inactive"
  },
  {
    "COMPOUND": "COc1cc(O)cc(O)c1",
    "activation": "inactive"
  },
  {
    "COMPOUND": "CNc1ncnc2nc[nH]c12",
    "activation": "inactive"
  },
  {
    "COMPOUND": "c1ccc2cnncc2c1",
    "activation": "inactive"
  },
  {
    "COMPOUND": "Oc1cc(O)c2c(c1)O[C@H](c1ccc(O)c(O)c1)[C@H](O)C2",
    "activation": "inactive"
  },
  {
    "COMPOUND": "Nc1cc(C(Cl)=C(Cl)Cl)c(S(N)(=O)=O)cc1S(N)(=O)=O",
    "activation": "inactive"
  },
  {
    "COMPOUND": "CCN(CC)S(=O)(=O)c1ccc(C(=O)O)cc1",
    "activation": "inactive"
  },
  {
    "COMPOUND": "CCC(=O)Nc1cccc(N)c1",
    "activation": "inactive"
  },
  {
    "COMPOUND": "O=C1OC(=O)c2cc([N+](=O)[O-])ccc21",
    "activation": "inactive"
  },
  {
    "COMPOUND": "CCCC=O",
    "activation": "inactive"
  },
  {
    "COMPOUND": "CCCOCC(C)OCC(C)O (centres undefined)",
    "activation": "inactive"
  },
  {
    "COMPOUND": "CC(C)CCCCCCN",
    "activation": "inactive"
  },
  {
    "COMPOUND": "CCCCC1CCCCC(=O)O1 (centres undefined)",
    "activation": "inactive"
  },
  {
    "COMPOUND": "CN(C)C(=O)Nc1ccccc1",
    "activation": "inactive"
  }
]
